Listing of entries alongside the reported pIC50.
Target entity: SHV-5 β-lactamase (Klebsiella pneumoniae, UniProt P0A3M1)
Sequence (P0A3M1 22-286): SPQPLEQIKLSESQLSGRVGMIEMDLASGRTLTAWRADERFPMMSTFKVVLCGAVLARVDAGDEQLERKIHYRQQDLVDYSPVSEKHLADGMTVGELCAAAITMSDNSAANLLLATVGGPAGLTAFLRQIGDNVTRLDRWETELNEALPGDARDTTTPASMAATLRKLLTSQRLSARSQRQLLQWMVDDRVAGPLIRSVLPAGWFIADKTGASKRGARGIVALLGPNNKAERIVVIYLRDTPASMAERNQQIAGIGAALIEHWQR
Protocol details: β-Lactamase inhibition enzyme assay, SHV-5
pIC50: −log10 of the molar value.

NCCOc1ccc(C(=O)N[C@H]2Cc3cccc(C(=O)O)c3OB2O)cc1O [Example 40]	6.00 to 7.00
O=C(Cc1cnc2c(c1)CCCN2)N[C@H]1Cc2cccc(C(=O)O)c2OB1O [Example 13]	> 7.00
O=C(Cc1ccc2c(c1)CNCC2)N[C@H]1Cc2cccc(C(=O)O)c2OB1O [Example 51]	> 7.00
O=C(N[C@H]1Cc2cccc(C(=O)O)c2OB1O)c1ccc2c(c1)CN(Cc1cccnc1)C2 [Example 12]	> 7.00
Cn1ccc2ccc(C(=O)N[C@H]3Cc4cccc(C(=O)O)c4OB3O)cc21 [Example 43]	6.00 to 7.00

Which pIC50 reading was recorded for the molecule CC(C)NCc1ccc(C(=O)N[C@H]2Cc3cccc(C(=O)O)c3OB2O)cc1CNC(C)C [Example 56] ?
> 7.00

Look at this molecule and give its reported pIC50. O=C(N[C@H]1Cc2cccc(C(=O)O)c2OB1O)c1ccc2nc[nH]c2c1 [Example 34]
> 7.00

Given the molecule O=C(O)c1cccc2c1OB(O)[C@@H](NC(=O)C(F)(F)c1ccccc1)C2 [Example 2] , what is its reported pIC50?
> 7.00

What measured pIC50 goes with NCc1ccc(C(=O)N[C@H]2Cc3cccc(C(=O)O)c3OB2O)cc1CN [Example 14] ?
6.00 to 7.00

So what's the measured pIC50 for this one? O=C(N[C@H]1Cc2cccc(C(=O)O)c2OB1O)c1ccc(-c2ncc[nH]2)cc1 [Example 47]
> 7.00

Any idea what its pIC50 is? The molecule is O=C(O)c1cccc2c1OB(O)[C@@H](NC(=O)C1(c3ccccc3)CCNCC1)C2 [Example 3]
4.00 to 5.00

Tell me the measured pIC50 of NCc1cc(CN)cc(C(=O)N[C@H]2Cc3cccc(C(=O)O)c3OB2O)c1 [Example 44] , please.
5.00 to 6.00

# lookup: pIC50 of O=C(Cc1ccc(O)c(O)c1)N[C@H]1Cc2cccc(C(=O)O)c2OB1O [Example 38]
> 7.00

Given O=C(O)c1cccc2c1OB(O)[C@@H](NC(=O)c1cccc3[nH]ccc13)C2 [Example 32] , state its recorded pIC50.
> 7.00

Fill in: pIC50 of NCCNc1ccc(CC(=O)N[C@H]2Cc3cccc(C(=O)O)c3OB2O)cn1 [Example 60] is ___
> 7.00

Endpoint output: pIC50 of NCCN1Cc2ccc(CC(=O)N[C@H]3Cc4cccc(C(=O)O)c4OB3O)cc2C1 [Example 49] . Value?
> 7.00

Find the recorded pIC50 belonging to O=C(O)c1ccccc1C(=O)N[C@H]1Cc2cccc(C(=O)O)c2OB1O [Example 53] and report it.
6.00 to 7.00

Recorded pIC50 for O=C(N[C@H]1Cc2cccc(C(=O)O)c2OB1O)c1csc2c1CCNC2 [Example 4] , please?
> 7.00

Item under review: O=C(N[C@H]1Cc2cccc(C(=O)O)c2OB1O)c1ccc(-c2ccncc2)cc1 [Example 27] . Reported pIC50?
> 7.00

Which value of pIC50 has been reported for NCCn1ccc2ccc(C(=O)N[C@H]3Cc4cccc(C(=O)O)c4OB3O)cc21 [Example 41] in the records?
> 7.00

# input molecule: NC1=NCc2ccc(C(=O)N[C@H]3Cc4cccc(C(=O)O)c4OB3O)cc2CN1 [Example 17] ; wanted: its pIC50
> 7.00

Record request: pIC50 value, item O=C(N[C@H]1Cc2cccc(C(=O)O)c2OB1O)c1cnco1 [Example 52]
> 7.00

# lookup: pIC50 of CN1Cc2ccc(C(=O)N[C@H]3Cc4cccc(C(=O)O)c4OB3O)cc2C1 [Example 10]
> 7.00

// lookup pIC50 for O=C(N[C@H]1Cc2cccc(C(=O)O)c2OB1O)c1ccc2c(c1)CCNC2 [Example 5]
> 7.00

Can you look up the measured pIC50 of NC1=Nc2cc(C(=O)N[C@H]3Cc4cccc(C(=O)O)c4OB3O)ccc2CN1 [Example 15] for me?
> 7.00

Give the measured pIC50 of O=C(N[C@H]1Cc2cccc(C(=O)O)c2OB1O)c1ccc2[nH]ccc2c1 [Example 26] .
> 7.00

From: patent US9376454B2
